tested on: SK-MEL-5 melanoma; assay: NCI tumour cell line growth inhibition, 48 h
Measurement Type: TGI

Look over these answered cases.
{"Compound": "CC12CCC(=O)N1[C@@H](c1ccccc1)[C@@H](c1ccccc1)O2 (stereo not given in full)", "Measurement Type": "TGI", "Endpoint Value": "> 100 µM"}
{"Compound": "COC(=O)C(Cc1c(-c2[nH]c3ccccc3c2CC(NC(C)=O)C(=O)OC)[nH]c2ccccc12)NC(C)=O (stereo not given)", "Measurement Type": "TGI", "Endpoint Value": "> 100 µM"}
{"Compound": "O=[N+]([O-])c1ccc(C2=NOC(c3ccccc3)N2C23CC4CC(CC(C4)C2)C3)cc1 (stereo not given)", "Measurement Type": "TGI", "Endpoint Value": "38.4 µM"}

Documented TGI of COC(=O)C1=C(N)C2=C(N)Oc3ccccc3C2CC1=C(C#N)C#N (stereo not given) : 52.7 µM

# TGI (compound: COC(=O)NC1=Nc2ccccc2C(=O)NN1 ) is > 100 µM

---

system: COLO 205 colon; assay: NCI tumour cell line growth inhibition, 48 h
Hi, to clarify the labels: Met covers TGI from 20 µM upward, Not met covers anything below 20 µM.

# count of solved cases: 6
{"Compound": "C=CCc1cc(OC)c(O)c(C(=O)/C=C/c2ccc(OC)c(OC)c2)c1", "Label": "Met"}
{"Compound": "O=Nn1c2ccccc2c2ccccc21", "Label": "Met"}
{"Compound": "O=C(Nc1nc2ccc(OC(F)(F)F)cc2s1)c1ccc(F)cc1", "Label": "Not met"}
{"Compound": "Oc1c(Cl)cc(Cl)c(Cl)c1Cc1c(O)c(Cl)cc(Cl)c1Cl", "Label": "Not met"}
{"Compound": "CCCN(CCCC(NC(C)=O)C(=O)NCc1ccccc1)C(=O)N(C)N=O (stereo not given)", "Label": "Met"}
{"Compound": "Cc1ccc(NC(=O)CC(=O)N2N=C(N(c3ccccc3)c3ccccc3)CC2c2ccccc2)cc1 (stereo not given)", "Label": "Met"}

Has O=S(=O)(Cc1ccccc1)c1nnc(S(=O)(=O)c2ccc(Cl)cc2)s1 a recorded TGI greater than or equal to 20 µM? Met

Entry CC12CCC(=O)N1[C@@H](c1ccccc1)[C@@H](c1ccccc1)O2 (stereo not given in full) : is its TGI no less than 20 µM? Met

Assess whether reported TGI for O=C1CC[C@@H](S(=O)(=O)c2ccccc2)[C@H](/C=C/c2ccccc2)O1 sits at 20 µM or higher. Met

Test whether the compound CC(=O)O[C@H]1[C@@H](OC2CCCC2(c2ccccc2)c2ccccc2)O[N+]([O-])=C[C@@H]1c1ccccc1 (stereo not given in full) records TGI of 20 µM or higher. Met

---

system: HCT-15 colon; assay: NCI tumour cell line growth inhibition, 48 h; in the data active means GI50 below about 0.43 µM; inactive means the rest
Hi! Could you answer with just one of these? 1 = active, -1 = inactive

{"Molecule": "CCCCCCCCCCCCCCCC(=O)OCC1OC(OCCCC)[C@H](O[C@@H]2OC(C)C(OC(=O)CCC)C(O)C2O)C(O)C1O (stereo not given in full)", "Experimental Target": "HCT-15 colon", "Label": -1}
{"Molecule": "Cn1ccc(S(=O)(=O)N2CCC[C@H](Nc3nccc(-c4c(-c5cccc(O)c5)nc5occn45)n3)C2)n1", "Experimental Target": "HCT-15 colon", "Label": -1}
{"Molecule": "CN(C)C/C=C/C(=O)Nc1ccc(C(=O)Nc2cccc(Nc3ncc(Cl)c(-c4c[nH]c5ccccc45)n3)c2)cc1", "Experimental Target": "HCT-15 colon", "Label": 1}
{"Molecule": "CCN(CC)Cc1cc(Nc2ccnc3ccc(OC)cc23)ccc1O", "Experimental Target": "HCT-15 colon", "Label": -1}

Lab note: next molecule to report on.
So what was the verdict on Cc1cc2c3c(nc4ccccc42)C(=O)c2cccnc2-c3n1 in this test? 1

---

system: SR leukemia; experiment: NCI tumour cell line growth inhibition, 48 h
Measurement Type: TGI (µM)
# output: bare number, implied unit µM

# annotated cases, reported TGI shown
{"Compound": "CC(=O)OC1CCn2c1nc1c2C(=O)C=C(N2CC2)C1=O (stereo not given)", "Experimental Target": "SR leukemia", "Measurement Type": "TGI", "Endpoint Value": 0.346}
{"Compound": "CC(O)C1(O)C(O)CC(OC2c3cc4c(c(O)c3[C@@H]3C[C@@]2(C)OC32C=c3cc[nH]c3=N2)C(=O)c2cccc(O)c2C4=O)OC1C (stereo not given in full)", "Experimental Target": "SR leukemia", "Measurement Type": "TGI", "Endpoint Value": 2.36}
{"Compound": "CCN(CC)CCOc1ccc(/C(=C(\\C)Cc2ccc(OC)cc2)c2ccc(O)cc2)cc1", "Experimental Target": "SR leukemia", "Measurement Type": "TGI", "Endpoint Value": 3.62}
{"Compound": "NNC(=O)N/N=C(/CC1(O)C(=O)Nc2ccc(Br)cc21)c1ccccc1 (stereo not given)", "Experimental Target": "SR leukemia", "Measurement Type": "TGI", "Endpoint Value": 87.8}

API: the following record is the query input.
O=C1NC(=S)NC(=O)C1=Cc1ccc([N+](=O)[O-])o1 has a reported TGI of 43.9

---

system: SF-268 CNS; test: NCI tumour cell line growth inhibition, 48 h
Measurement Type: TGI

// worked examples, TGI included
{"Molecule": "CNc1ccc(C)cc1S(=O)(=O)c1ccccc1[N+](=O)[O-]", "TGI": "> 100 µM"}
{"Molecule": "COC(=O)CSc1cc(Cl)c(C)cc1S(=O)(=O)Nc1n[nH]c(N)n1", "TGI": "> 10 µM"}
{"Molecule": "Cc1cc(NS(=O)(=O)c2ccc(NC(=O)c3cccc4c(Nc5ccc(S(=O)(=O)Nc6cc(C)on6)cc5)c5ccc(Cl)cc5nc34)cc2)no1", "TGI": "> 100 µM"}
{"Molecule": "CC(O)C1(O)C(O)CC(OC2c3cc4c(c(O)c3[C@@H]3C[C@@]2(C)OC32C=c3cc[nH]c3=N2)C(=O)c2cccc(O)c2C4=O)OC1C (some centres undefined)", "TGI": "4.38 µM"}
{"Molecule": "CS(=O)(=O)ON1C(=O)c2ccc(N)cc2C1=O", "TGI": "> 95.7 µM"}

TGI for O=S(=O)(N=[Se](=O)(c1ccccc1)c1ccccc1)c1ccccc1 is > 100 µM

For COc1ccc(/C=C/C(=O)C(=O)/C=C/c2ccc(OC)c(OC)c2)cc1OC the molecule record lists TGI as 8.58 µM

For record CCN(CC)CCOc1ccc(/C(=C(\C)Cc2ccc(OC)cc2)c2ccc(O)cc2)cc1 the listed TGI is 4.33 µM

get_value(item= O=C(Cn1c2ccc(Br)cc2c2nc3ccccc3nc21)NNC(=O)NC1CCCCC1 , readout=TGI) returns > 100 µM

---

test system: MDA-N; assay: NCI tumour cell line growth inhibition, 48 h
*1 amine or outer side, *2 acyl side, *3 side chain or, on linkers, in order; H or OH if unused. Where a SMILES comes first, the peptide text is derived from it. Bridges are numbered along the chain shown (N, C = ends). Roman numbers before positions name the chains, in order. [ ]: non-standard residue; d: D form. Actinocin(1to9) = Cc1c2oc3c(C)ccc(C(=O)[*:2])c3nc-2c(C(=O)[*:1])c(N)c1=O; NMeV = CN[CH](C(=O)O)C(C)C; Sar = CNCC(=O)O
Here, each record is paired with measured TGI data.

{"Molecule": "COC1(OC)CCCCCCCCC(OC)(OC)CCCCCCCC1", "Measurement Type": "TGI", "Endpoint Value": "> 100 µM"}
{"Molecule": "COc1ncnc2c(Cl)c(C(O)c3ccccc3)c(Cl)cc12 (stereo unspecified)", "Measurement Type": "TGI", "Endpoint Value": "18.7 µM"}
{"Molecule": "O=C(Cc1csc2[n+]1C(=O)/C(=C/c1ccc(Cl)cc1)S2)Nc1ccccc1", "Measurement Type": "TGI", "Endpoint Value": "> 100 µM"}

Form: molecule = CN(C)C12C=CC=CC3=C(c4ccccc4)C(c4ccccc4)=C(c4ccccc4)C31c1ccccc1C2 (stereo unspecified) ; TGI = > 100 µM

According to the records, this molecule COc1ccc(CC2NC(=O)C(NC(=O)c3c4nc5c(C(=O)NC6C(=O)NC(Cc7ccc(OC)cc7)C(=O)N7CCCC7C(=O)N(C)CC(=O)N(C)C(C(C)C)C(=O)OC6C)ccc(C)c5oc-4c(C)c(=O)c3N)C(C)OC(=O)C(C(C)C)N(C)C(=O)CN(C)C(=O)C3CCCN3C2=O)cc1 (stereo unspecified) (I: TY(Me)P[Sar][NMeV] / II: TY(Me)P[Sar][NMeV]; ester I:1-I:C, II:1-II:C; linker I:N-II:N via Actinocin(1to9); configuration not given here) displays TGI of 0.0876 µM

Looking up O=C(Cn1c2ccc(Br)cc2c2nc3ccccc3nc21)NNC(=O)NC1CCCCC1 , I found its TGI recorded as > 100 µM
